Each recorded value in this set is attributed to ChEMBL document CHEMBL5370561.

Kindly state inhibition at 10 µM for each of the entries shown.
Test system: RAW264.7
assay procedure: Antiinflammatory activity in LPS-induced mouse RAW264.7 cells assessed as inhibition of TNF-alpha production at 10 uM incubated for 1 hr followed by LPS-stimulation and measured after 24 hrs by ELISA analysis relative to control
Type: functional
condition set: time 25 hrs
Answers are plain numbers, in %.

Consider the reported inhibition at 10 µM for these compounds:
CC(C)=CC/C=C(/C)[C@H]1CC[C@]2(C)[C@@H]1CC[C@@H]1[C@@]3(C)CC[C@H](O)C(C)(C)[C@@H]3CC[C@]12C
50
C=C(CC/C=C(\C)CCC=C(C)C)[C@H]1CC[C@H]2[C@@]1(C)CC[C@H]1C(C)(C)[C@@H](O)CC[C@]21C
40
CC(C)=CCC[C@@](C)(O)[C@H]1CC[C@]2(C)[C@@H]1CC[C@@H]1[C@@]3(C)CC[C@H](O)C(C)(C)[C@@H]3CC[C@]12C
43
CC(C)=CCC/C(C)=C/CC[C@@](C)(O)[C@@H]1CC[C@H]2[C@@]1(C)CC[C@H]1C(C)(C)[C@@H](O)CC[C@]21C
42

Turning now to a further record.
Please report the recorded inhibition at 10 µM for C[C@@H]1C[C@H]2[C@@H]3CCC4=CC(=O)C=C[C@]4(C)[C@@]3(F)[C@@H](O)C[C@]2(C)[C@@]1(O)C(=O)CO . 55
